Sourced from paper PMC8178753

- System: designed zinc finger (Jantz and Berg, 2010) (synthetic construct)
- assay overview: fluorescence anisotropy
- details: fluorescein (6-FAMK) in place of T9 of reverse strand; 25 mM Hepes pH 7.5, 50 mM NaCl, 1 mM TCEP; FA: 1 nM FAM-dsDNA, 20 min RT, read at 25°C; EMSA: 200 nM dsDNA, 0.78-30 µM protein, 30 min RT, native PAGE at 4°C
property label: Kd (nM)
Express it in nM; write the number only.

# get_value(readout='Kd', item= CGATCGTTGAGGCAGAACCTGATCA (double strand) [designed DNA FAM (BA3083)] )
8
